target: adenosine A2b receptor (Homo sapiens, UniProt P29275); assay: Intracellular cAMP (cAMP-RIA) in CHO cells transfected with cDNA for the A2b receptor, agonist mode; type: cell-based; conditions: CHO cells with A2b receptor, 10^-6 M, based on control without substance; read-out: Concentration of intracellular cAMP in percent
Readout Kind: activity at 1 µM (%)

| Compound | Unit | activity at 1 µM |
| --- | --- | --- |
| N#Cc1c(N)nc(SCC(N)=O)c(C#N)c1-c1ccc(O)cc1 | % | 947 |
| N#Cc1c(N)nc(SCCO)c(C#N)c1-c1cccc(O)c1 | % | 674 |
| N#Cc1c(N)nc(SCCO)c(C#N)c1-c1ccccc1 | % | 586 |
| CC(O)CSc1nc(N)c(C#N)c(-c2cccc(O)c2)c1C#N (stereo not shown) | % | 716 |

* * *

molecular target: adenosine A2b receptor (Homo sapiens); experiment: Intracellular cAMP (cAMP-RIA) in CHO cells transfected with cDNA for the A2b receptor, agonist mode; type: cell-based; conditions: CHO cells with A2b receptor, 10^-5 M, based on control without substance; read-out: Concentration of intracellular cAMP in percent
Readout Kind: activity at 10 µM (%)

See these solved cases before continuing.
| Compound | Unit | activity at 10 µM |
| --- | --- | --- |
| CC(O)CSc1nc(N)c(C#N)c(-c2cccc(O)c2)c1C#N (stereo not shown) | % | 753 |
| N#Cc1c(N)nc(SCCO)c(C#N)c1-c1cccc(O)c1 | % | 784 |

(1) N#Cc1c(N)nc(SCCO)c(C#N)c1-c1ccccc1
(2) N#Cc1c(N)nc(SCC(N)=O)c(C#N)c1-c1ccc(O)cc1
IN: So which one has the bigger activity at 10 µM here, 1 or 2 ? Lab note: record the label of whichever item you select.
OUT: 2

* * *

Molecular target: UniProt P29275
Assay: Intracellular cAMP (cAMP-RIA) in CHO cells transfected with cDNA for the A2b receptor, agonist mode
Assay type: cell-based
Settings: CHO cells with A2b receptor, 10^-7 M, based on control without substance; read-out: Concentration of intracellular cAMP in percent
Method: Cells of the permanent line CHO (Chinese Hamster Ovary) were stably transfected with cDNA for the adenosine receptor subtypes A1, A2a, A2b and A3. Binding of the substances to the A2a or A2b receptor subtypes was determined by measuring the intracellular cAMP concentration in these cells using a conventional radioimmunological assay (cAMP-RIA, IBL GmbH, Hamburg, Germany). […]
Readout Kind: activity at 0.1 µM (%)

| Compound | activity at 0.1 µM [%] |
| --- | --- |
| N#Cc1c(N)nc(SCCO)c(C#N)c1-c1cccc(O)c1 | 347 |

(A) CC(O)CSc1nc(N)c(C#N)c(-c2cccc(O)c2)c1C#N (stereo not shown)
(B) N#Cc1c(N)nc(SCC(N)=O)c(C#N)c1-c1ccc(O)cc1
IN: Form: Entry with minimum activity at 0.1 µM (choose one): A / B Lab note: record the label of whichever item you select.
OUT: A

* * *

Molecular target: adenosine A2b receptor (Homo sapiens)
Sequence (P29275 1-332): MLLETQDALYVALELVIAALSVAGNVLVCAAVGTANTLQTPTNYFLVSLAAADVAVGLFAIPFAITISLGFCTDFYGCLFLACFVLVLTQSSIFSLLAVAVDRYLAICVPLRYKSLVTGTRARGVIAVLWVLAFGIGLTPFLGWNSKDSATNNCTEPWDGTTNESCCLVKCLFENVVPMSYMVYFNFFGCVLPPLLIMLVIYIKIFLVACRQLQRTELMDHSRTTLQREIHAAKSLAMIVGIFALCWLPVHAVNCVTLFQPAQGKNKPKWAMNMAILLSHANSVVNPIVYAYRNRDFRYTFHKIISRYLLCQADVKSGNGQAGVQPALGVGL
Assay: Intracellular cAMP (cAMP-RIA) in CHO cells transfected with cDNA for the A2b receptor, agonist mode
Assay type: cell-based
Settings: summary of cAMP data
Readout Kind: agonistic effect on cells which express the adenosine receptor A2b (in words)

| Given Smiles | Result Value |
| --- | --- |
| N#Cc1c(N)nc(SCc2ncc[nH]2)c(C#N)c1-c1ccc(O)cc1 | clear agonistic effect |
| N#Cc1c(N)nc(SCC(N)=O)c(C#N)c1-c1ccc(O)cc1 | clear agonistic effect |

* * *

molecular target: adenosine A2a receptor (Homo sapiens, UniProt P29274); test: Intracellular cAMP (cAMP-RIA) in CHO cells transfected with cDNA for the A2a receptor, agonist mode; type: cell-based; conditions: CHO cells with A2a receptor, 10^-5 M, based on control without substance
Sequence (P29274 whole entry): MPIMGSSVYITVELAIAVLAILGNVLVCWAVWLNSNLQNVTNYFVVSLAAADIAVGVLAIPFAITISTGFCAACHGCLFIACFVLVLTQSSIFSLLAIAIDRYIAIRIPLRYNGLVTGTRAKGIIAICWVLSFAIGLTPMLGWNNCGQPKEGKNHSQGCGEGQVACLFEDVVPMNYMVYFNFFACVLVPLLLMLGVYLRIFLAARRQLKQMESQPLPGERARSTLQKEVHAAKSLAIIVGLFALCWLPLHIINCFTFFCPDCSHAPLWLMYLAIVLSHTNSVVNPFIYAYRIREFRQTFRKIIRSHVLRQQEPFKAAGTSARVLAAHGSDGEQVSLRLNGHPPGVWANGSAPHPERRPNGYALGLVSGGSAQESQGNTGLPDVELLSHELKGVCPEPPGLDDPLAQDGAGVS
Readout Kind: Concentration of intracellular cAMP in percent (%)

See these solved cases before continuing.
| Compound | Result Value |
| --- | --- |
| N#Cc1c(N)nc(SCC(N)=O)c(C#N)c1-c1ccc(O)cc1 [A 1] | 208 |
| N#Cc1c(N)nc(SCCO)c(C#N)c1-c1ccccc1 [A 104] | 212 |
| N#Cc1c(N)nc(SCc2ncc[nH]2)c(C#N)c1-c1ccc(O)cc1 [A 379] | 291 |

(1) CC(O)CSc1nc(N)c(C#N)c(-c2cccc(O)c2)c1C#N (centres unmarked) [A 46]
(2) N#Cc1c(N)nc(SCCO)c(C#N)c1-c1cccc(O)c1 [A 43]
IN: Form: Entry with minimum Concentration of intracellular cAMP in percent (choose one): 1 / 2 Lab note: record the label of whichever item you select.
OUT: 1
(1: 183%, 2: 317%)
